- experimental_system: Alpha-2C adrenergic receptor (Homo sapiens, UniProt P18825)
- Sequence (P18825 whole entry): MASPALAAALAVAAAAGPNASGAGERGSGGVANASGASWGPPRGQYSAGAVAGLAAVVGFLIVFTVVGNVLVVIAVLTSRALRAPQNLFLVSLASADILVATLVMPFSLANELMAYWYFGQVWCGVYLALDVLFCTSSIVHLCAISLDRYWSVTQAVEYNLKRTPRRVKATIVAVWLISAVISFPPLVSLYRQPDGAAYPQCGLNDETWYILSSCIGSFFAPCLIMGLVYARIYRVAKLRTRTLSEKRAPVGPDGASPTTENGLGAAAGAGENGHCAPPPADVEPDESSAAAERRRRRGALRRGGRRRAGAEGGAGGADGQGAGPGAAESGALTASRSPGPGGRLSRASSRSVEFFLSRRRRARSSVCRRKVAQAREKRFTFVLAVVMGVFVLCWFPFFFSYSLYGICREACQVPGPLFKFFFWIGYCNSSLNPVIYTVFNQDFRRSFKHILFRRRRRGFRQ
value_kind: Ki (nM)
Respond numerically; units are nM and should not be typed.

Please state recorded Ki (tested on Alpha-2C adrenergic receptor (Homo sapiens, UniProt P18825)) of COc1cc2c3c(c1OC)-c1cc4c(cc1CC3N(C)CC2)OCO4 (racemic)
181

----------
- experimental_system: Beta-2 adrenergic receptor (Homo sapiens, UniProt P07550)
- Sequence (P07550 whole entry): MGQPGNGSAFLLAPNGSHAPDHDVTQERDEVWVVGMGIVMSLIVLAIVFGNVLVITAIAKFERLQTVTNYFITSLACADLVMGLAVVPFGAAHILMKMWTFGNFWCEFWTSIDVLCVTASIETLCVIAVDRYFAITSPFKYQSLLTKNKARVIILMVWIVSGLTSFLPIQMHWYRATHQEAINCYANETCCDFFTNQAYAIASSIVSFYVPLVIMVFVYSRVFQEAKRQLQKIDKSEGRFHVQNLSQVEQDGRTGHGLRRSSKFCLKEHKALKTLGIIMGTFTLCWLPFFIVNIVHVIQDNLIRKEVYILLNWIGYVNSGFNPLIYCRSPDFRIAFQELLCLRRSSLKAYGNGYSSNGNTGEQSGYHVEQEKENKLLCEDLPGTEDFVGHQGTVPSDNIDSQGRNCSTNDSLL
pKi: −log10 of the molar value.
value_kind: pKi

Provide value of pKi for this record tested with Beta-2 adrenergic receptor (Homo sapiens, UniProt P07550): COc1cc2c3c(c1OC)-c1cc4c(cc1CC3N(C)CC2)OCO4 (racemic)
< 5.00

----------
- experimental_system: D(3) dopamine receptor (Homo sapiens, UniProt P35462)
- Sequence (P35462 whole entry): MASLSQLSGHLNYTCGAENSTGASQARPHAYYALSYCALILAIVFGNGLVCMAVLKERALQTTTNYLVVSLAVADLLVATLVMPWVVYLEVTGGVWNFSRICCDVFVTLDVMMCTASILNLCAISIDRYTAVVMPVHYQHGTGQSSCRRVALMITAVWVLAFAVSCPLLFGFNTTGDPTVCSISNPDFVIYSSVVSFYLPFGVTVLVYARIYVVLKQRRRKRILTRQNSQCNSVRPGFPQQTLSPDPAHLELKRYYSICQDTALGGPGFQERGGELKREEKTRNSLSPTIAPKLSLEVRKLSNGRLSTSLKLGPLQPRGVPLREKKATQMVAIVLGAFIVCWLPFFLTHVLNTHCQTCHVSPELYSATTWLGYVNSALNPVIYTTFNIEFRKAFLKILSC
value_kind: pKi
Keep it numeric: pKi is minus log10 of the concentration in mol/L.

pKi of COc1cc2c3c(c1OC)-c1cc4c(cc1CC3N(C)CC2)OCO4 (racemic) on D(3) dopamine receptor (Homo sapiens, UniProt P35462)?
6.51

----------
- experimental_system: Histamine H1 receptor (Homo sapiens, UniProt P35367)
- Sequence (P35367 whole entry): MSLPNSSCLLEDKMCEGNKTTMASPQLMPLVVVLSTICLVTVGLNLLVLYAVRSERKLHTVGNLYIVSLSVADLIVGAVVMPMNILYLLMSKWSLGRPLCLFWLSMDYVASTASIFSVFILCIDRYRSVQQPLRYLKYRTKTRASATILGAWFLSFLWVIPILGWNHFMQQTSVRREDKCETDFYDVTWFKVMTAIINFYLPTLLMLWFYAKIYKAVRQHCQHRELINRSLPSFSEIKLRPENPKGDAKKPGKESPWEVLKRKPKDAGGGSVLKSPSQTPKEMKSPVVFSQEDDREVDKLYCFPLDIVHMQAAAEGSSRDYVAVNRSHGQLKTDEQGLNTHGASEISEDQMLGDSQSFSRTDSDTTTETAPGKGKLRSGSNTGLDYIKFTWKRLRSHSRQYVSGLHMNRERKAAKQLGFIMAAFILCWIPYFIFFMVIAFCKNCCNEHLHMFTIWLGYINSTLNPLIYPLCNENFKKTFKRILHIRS
value_kind: Ki

Request: Ki, test system Histamine H1 receptor (Homo sapiens, UniProt P35367), entry COc1cc2c3c(c1OC)-c1cc4c(cc1CC3N(C)CC2)OCO4 (racemic)
> 10 µM

----------
- experimental_system: Muscarinic acetylcholine receptor M2 (Homo sapiens)
- Sequence (P08172 whole entry): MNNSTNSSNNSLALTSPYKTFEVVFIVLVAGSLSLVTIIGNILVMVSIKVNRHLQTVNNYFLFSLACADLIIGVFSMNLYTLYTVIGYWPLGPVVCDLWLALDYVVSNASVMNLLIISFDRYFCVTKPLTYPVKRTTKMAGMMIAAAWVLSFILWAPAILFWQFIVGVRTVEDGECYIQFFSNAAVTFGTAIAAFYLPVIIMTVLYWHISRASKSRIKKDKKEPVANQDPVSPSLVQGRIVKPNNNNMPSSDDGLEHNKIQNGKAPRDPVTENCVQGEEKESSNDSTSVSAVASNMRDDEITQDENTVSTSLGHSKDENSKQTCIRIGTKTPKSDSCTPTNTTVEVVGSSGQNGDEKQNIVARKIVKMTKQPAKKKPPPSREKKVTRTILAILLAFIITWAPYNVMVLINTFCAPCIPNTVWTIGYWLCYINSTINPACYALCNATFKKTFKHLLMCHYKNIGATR
value_kind: Ki

Item COc1cc2c3c(c1OC)-c1cc4c(cc1CC3N(C)CC2)OCO4 (racemic) [NANTENINE] with Muscarinic acetylcholine receptor M2 (Homo sapiens) - Ki?
> 10 µM

----------
- experimental_system: Delta-type opioid receptor (Homo sapiens, UniProt P41143)
- Sequence (P41143 whole entry): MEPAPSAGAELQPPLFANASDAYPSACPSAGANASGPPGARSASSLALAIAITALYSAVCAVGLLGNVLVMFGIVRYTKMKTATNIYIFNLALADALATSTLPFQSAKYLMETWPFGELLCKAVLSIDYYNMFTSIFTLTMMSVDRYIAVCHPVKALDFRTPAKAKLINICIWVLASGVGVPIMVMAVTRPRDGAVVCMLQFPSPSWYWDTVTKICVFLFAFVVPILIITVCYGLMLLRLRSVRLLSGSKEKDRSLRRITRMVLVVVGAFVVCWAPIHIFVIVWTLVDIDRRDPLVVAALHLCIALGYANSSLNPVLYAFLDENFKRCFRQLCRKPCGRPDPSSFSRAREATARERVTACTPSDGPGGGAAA
- test_details: Displacement of [3H]DADLE from human DOR
pKi: −log10 of the molar value.
value_kind: pKi

Which measured pKi value corresponds to COc1cc2c3c(c1OC)-c1cc4c(cc1CC3N(C)CC2)OCO4 (racemic) ?
< 5.00

----------
- experimental_system: 5-hydroxytryptamine receptor 1E (Homo sapiens)
- Sequence (P28566 whole entry): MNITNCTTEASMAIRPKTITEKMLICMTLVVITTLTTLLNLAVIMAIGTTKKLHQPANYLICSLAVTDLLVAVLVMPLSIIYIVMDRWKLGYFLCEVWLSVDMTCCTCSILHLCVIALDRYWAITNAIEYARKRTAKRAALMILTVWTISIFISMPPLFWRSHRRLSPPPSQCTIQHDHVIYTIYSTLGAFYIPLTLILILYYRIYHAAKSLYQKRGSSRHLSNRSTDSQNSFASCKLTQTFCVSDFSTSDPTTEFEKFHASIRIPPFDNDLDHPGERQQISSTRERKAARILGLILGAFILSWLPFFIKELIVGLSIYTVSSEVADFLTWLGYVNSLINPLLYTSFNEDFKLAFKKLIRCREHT
value_kind: Ki

Consider the molecule shown here: COc1cc2c3c(c1OC)-c1cc4c(cc1CC3N(C)CC2)OCO4 (racemic) [NANTENINE] What is its recorded Ki?
> 10 µM

----------
- experimental_system: Alpha-2B adrenergic receptor (Homo sapiens)
- Sequence (P18089 whole entry): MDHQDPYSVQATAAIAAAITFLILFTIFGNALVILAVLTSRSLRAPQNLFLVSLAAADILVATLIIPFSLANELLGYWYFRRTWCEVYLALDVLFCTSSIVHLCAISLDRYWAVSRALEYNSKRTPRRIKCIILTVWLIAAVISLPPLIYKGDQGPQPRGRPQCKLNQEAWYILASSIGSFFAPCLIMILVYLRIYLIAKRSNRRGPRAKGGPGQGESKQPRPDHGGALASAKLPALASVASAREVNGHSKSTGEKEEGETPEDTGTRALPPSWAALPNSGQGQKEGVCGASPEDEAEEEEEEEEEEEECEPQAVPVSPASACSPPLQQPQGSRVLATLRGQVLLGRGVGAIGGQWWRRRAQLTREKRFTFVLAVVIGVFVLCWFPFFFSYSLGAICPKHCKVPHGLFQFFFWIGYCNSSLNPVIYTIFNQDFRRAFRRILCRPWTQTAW
- test_details: Displacement of [3H]Clonidine from human adrenergic alpha2B receptor
value_kind: Ki (µM)
Reply numerically in µM, unit not repeated.

Entry COc1cc2c3c(c1OC)-c1cc4c(cc1CC3N(C)CC2)OCO4 (racemic) : reported Ki = ?
0.252

----------
- experimental_system: 5-hydroxytryptamine receptor 2C (Homo sapiens)
- Sequence (P28335 whole entry): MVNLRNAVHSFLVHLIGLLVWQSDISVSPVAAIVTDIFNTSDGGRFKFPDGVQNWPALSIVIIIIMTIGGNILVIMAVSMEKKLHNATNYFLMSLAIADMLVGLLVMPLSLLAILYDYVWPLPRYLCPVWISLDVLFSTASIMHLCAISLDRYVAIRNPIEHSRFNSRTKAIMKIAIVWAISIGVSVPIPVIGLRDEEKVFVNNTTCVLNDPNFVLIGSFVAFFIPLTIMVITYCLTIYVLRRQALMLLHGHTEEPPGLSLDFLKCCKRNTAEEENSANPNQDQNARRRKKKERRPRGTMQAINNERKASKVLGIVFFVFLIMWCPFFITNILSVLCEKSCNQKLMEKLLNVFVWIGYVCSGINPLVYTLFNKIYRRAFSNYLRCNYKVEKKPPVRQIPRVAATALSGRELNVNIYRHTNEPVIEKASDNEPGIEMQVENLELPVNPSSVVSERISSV
value_kind: Ki (nM)
State the answer as a number, implicitly in nM.

Entry COc1cc2c3c(c1OC)-c1cc4c(cc1CC3N(C)CC2)OCO4 (racemic) has what Ki?
1070

----------
- experimental_system: Muscarinic acetylcholine receptor M4 (Homo sapiens)
- Sequence (P08173 whole entry): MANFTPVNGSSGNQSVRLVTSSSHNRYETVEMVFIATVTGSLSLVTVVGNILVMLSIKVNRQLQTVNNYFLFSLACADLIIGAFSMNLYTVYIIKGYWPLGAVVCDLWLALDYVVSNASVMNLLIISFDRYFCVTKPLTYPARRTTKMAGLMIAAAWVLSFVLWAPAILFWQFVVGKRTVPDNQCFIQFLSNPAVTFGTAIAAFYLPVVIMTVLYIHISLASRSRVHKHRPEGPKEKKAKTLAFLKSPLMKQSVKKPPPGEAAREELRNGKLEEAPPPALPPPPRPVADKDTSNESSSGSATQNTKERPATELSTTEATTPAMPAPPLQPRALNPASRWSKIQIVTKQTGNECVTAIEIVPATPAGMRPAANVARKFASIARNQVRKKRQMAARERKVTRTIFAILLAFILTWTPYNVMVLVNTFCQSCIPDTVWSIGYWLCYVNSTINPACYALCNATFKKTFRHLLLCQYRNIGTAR
pKi: −log10 of the molar value.
value_kind: pKi

Can you look up the measured pKi of COc1cc2c3c(c1OC)-c1cc4c(cc1CC3N(C)CC2)OCO4 (racemic) [NANTENINE] for me?
< 5.00

----------
- experimental_system: Sodium-dependent noradrenaline transporter (Homo sapiens, UniProt P23975)
- Sequence (P23975 whole entry): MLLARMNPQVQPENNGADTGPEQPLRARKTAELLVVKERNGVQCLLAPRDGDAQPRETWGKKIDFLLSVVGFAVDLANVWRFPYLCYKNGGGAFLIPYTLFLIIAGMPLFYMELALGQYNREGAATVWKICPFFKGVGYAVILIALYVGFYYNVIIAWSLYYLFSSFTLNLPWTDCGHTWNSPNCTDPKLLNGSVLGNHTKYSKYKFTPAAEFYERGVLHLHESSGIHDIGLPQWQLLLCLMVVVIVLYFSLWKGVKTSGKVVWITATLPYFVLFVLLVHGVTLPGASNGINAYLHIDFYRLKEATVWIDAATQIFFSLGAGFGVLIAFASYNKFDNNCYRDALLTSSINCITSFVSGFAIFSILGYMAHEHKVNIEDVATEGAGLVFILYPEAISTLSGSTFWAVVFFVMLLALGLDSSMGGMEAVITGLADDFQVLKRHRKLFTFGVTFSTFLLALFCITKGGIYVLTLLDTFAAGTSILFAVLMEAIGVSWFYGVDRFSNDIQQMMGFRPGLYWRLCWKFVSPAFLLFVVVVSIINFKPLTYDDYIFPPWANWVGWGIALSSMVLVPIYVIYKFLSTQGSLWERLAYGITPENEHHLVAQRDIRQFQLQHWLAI
pKi: −log10 of the molar value.
value_kind: pKi

Lab note: need pKi for COc1cc2c3c(c1OC)-c1cc4c(cc1CC3N(C)CC2)OCO4 (racemic) on Sodium-dependent noradrenaline transporter (Homo sapiens, UniProt P23975), anyone have it?
< 5.00

----------
- experimental_system: D(4) dopamine receptor (Homo sapiens, UniProt P21917)
- Sequence (P21917 whole entry): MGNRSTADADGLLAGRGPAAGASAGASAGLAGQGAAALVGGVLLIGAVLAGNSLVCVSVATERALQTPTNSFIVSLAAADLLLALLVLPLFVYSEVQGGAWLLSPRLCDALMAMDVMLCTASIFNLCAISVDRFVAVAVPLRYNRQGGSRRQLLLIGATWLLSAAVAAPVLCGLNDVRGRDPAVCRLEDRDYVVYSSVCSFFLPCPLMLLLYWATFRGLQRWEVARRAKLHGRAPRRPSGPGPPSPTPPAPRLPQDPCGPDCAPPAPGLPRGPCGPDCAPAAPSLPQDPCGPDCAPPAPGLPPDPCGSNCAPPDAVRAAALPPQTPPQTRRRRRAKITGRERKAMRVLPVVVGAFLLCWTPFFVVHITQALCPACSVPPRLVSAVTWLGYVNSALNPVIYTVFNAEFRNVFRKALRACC
value_kind: Ki
Respond with the figure and its unit, in that order.

What Ki value was documented for this compound, COc1cc2c3c(c1OC)-c1cc4c(cc1CC3N(C)CC2)OCO4 (racemic) [NANTENINE] ?
262 nM

----------
- experimental_system: Alpha-1D adrenergic receptor (Homo sapiens)
- Sequence (P25100 whole entry): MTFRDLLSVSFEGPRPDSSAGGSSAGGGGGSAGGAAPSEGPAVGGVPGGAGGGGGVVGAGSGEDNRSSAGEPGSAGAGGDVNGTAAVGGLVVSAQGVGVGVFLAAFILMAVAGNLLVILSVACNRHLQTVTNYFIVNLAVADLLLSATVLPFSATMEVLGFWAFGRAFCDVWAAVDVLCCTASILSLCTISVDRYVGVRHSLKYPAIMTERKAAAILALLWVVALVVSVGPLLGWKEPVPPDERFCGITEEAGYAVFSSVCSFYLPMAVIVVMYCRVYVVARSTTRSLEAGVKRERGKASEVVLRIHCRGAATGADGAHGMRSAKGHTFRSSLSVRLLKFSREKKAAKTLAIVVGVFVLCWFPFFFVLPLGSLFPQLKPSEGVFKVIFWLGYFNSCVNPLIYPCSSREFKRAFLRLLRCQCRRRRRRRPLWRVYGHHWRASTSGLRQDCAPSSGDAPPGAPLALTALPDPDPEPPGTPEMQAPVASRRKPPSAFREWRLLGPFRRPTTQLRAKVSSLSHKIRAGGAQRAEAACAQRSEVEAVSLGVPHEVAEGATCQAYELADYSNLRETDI
value_kind: pKi
# log scale: pKi equals minus log10 of the concentration in mol/L

# pKi lookup, item COc1cc2c3c(c1OC)-c1cc4c(cc1CC3N(C)CC2)OCO4 (racemic)
6.47

----------
- experimental_system: Mu-type opioid receptor (Homo sapiens)
- Sequence (P35372 whole entry): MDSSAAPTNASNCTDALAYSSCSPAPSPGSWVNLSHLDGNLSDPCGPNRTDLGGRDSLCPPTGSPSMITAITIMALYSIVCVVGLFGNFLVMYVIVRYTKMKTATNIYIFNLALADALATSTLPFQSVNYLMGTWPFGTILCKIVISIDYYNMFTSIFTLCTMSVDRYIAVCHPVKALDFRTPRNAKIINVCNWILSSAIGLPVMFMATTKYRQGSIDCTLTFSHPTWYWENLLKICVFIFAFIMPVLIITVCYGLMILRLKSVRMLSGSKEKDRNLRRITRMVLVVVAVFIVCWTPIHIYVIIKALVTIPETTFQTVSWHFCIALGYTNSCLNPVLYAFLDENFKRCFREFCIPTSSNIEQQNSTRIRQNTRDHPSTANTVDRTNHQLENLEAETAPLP
value_kind: pKi
In simple prose, pKi is minus the logarithm base ten of a concentration in moles per litre.

Which pKi is reported with Mu-type opioid receptor (Homo sapiens) for this entry: COc1cc2c3c(c1OC)-c1cc4c(cc1CC3N(C)CC2)OCO4 (racemic) ?
5.14

----------
- experimental_system: UniProt:P13945
- Sequence (P13945 whole entry): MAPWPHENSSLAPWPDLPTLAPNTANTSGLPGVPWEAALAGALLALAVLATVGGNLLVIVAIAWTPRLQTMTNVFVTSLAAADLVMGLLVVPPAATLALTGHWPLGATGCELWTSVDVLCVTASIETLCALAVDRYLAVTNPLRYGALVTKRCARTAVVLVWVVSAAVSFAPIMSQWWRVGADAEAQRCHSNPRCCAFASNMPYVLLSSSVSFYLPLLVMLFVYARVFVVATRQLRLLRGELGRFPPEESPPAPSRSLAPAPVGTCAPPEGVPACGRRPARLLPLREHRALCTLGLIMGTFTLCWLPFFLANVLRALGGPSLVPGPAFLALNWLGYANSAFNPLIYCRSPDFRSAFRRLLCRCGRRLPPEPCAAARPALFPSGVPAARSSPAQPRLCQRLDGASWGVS
pKi: −log10 of the molar value.
value_kind: pKi

Query: pKi; subject: COc1cc2c3c(c1OC)-c1cc4c(cc1CC3N(C)CC2)OCO4 (racemic) [NANTENINE]
< 5.00

----------
- experimental_system: Alpha-2A adrenergic receptor (Homo sapiens)
- Sequence (P08913 whole entry): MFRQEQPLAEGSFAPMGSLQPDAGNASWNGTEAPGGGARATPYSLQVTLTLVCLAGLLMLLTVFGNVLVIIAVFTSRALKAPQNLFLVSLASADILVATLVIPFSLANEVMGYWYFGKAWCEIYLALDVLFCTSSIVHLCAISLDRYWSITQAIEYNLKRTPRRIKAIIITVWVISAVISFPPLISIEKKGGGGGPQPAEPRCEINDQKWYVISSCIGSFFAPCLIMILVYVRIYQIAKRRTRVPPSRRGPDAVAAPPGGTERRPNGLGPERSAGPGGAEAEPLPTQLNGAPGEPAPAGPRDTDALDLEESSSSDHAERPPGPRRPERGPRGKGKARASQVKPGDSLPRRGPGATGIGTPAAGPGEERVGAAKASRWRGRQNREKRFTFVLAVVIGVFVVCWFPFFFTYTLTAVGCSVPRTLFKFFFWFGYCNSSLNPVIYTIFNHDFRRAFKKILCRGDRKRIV
value_kind: pKi
Conceptually, pKi converts a concentration in mol/L into minus its log10.

# query: pKi of entry COc1cc2c3c(c1OC)-c1cc4c(cc1CC3N(C)CC2)OCO4 (racemic)
5.89

Just for reference, ChEMBL document CHEMBL1153197 is where these values come from.
